pKi: −log10 of the molar value.
Recorded pKi values (5-HT2C receptor (Homo sapiens)) are given below.
ENDPOINT LABEL: pKi

SMILES NOTATION	OBSERVED
Cc1c(F)cnc2c1C[C@@H]1CNC[C@@H](C)N21	8.22
C[C@@H]1CNC[C@H]2Cc3cc(Cl)c(C(F)F)nc3N21	8.10
CO[C@H](C)c1nc2c(cc1Cl)C[C@@H]1CNC[C@@H](C)N21	8.05

###

MEASURED TARGET: 5-HT2C receptor (Homo sapiens, UniProt P28335)
Sequence (P28335 33-458): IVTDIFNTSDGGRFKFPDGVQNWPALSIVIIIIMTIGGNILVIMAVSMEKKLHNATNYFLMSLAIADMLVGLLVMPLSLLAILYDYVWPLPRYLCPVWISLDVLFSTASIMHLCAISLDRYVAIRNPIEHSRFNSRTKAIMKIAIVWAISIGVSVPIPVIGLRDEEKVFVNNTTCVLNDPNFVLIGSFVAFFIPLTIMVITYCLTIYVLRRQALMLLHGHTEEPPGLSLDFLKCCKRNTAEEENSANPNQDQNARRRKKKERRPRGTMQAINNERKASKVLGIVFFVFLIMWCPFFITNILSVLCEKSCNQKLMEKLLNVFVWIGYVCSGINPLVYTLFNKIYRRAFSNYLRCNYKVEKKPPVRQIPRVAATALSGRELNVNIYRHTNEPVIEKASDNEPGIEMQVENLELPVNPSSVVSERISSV
TEST: Functional activity, FLIPR calcium assay, h5-HT2C
EXPERIMENTAL PARAMETERS: CHO cells expressing human 5-HT2C; FLIPR

SMILES NOTATION	EC50, nM
Cc1c(F)cnc2c1C[C@@H]1CNC[C@@H](C)N21	13
C[C@@H]1CNC[C@H]2Cc3cc(Cl)c(C(F)F)nc3N21	14
CO[C@H](C)c1nc2c(cc1Cl)C[C@@H]1CNC[C@@H](C)N21	13

Attribution: patent US7208494B2
